Several reports have described pIC50 for Histamine H3 receptor (Homo sapiens); a selection of those results is presented here.
One number for each entry, as −log10 of the molar value.

{"compound": "CCc1nn2c(C)cc(C)nc2c1Cc1ccc(/C=C/CN2CCN(C(=O)[C@H](CO)NC)CC2)cc1", "reported property": "pIC50", "measured result": 4.59}
{"compound": "Cc1cc(C(=O)N2CCC3(CC2)CC(C(=O)N2CCCN(C(C)C)CC2)C3)ccn1", "reported property": "pIC50", "measured result": 6.80}
{"compound": "C[C@H]1CN(C2CCC2)CCN1C(=O)C1CC2(CCN(S(C)(=O)=O)CC2)C1", "reported property": "pIC50", "measured result": 7.67}
{"compound": "O=C(C1CCCCC1)N1CCC2(CC1)CC(C(=O)N1CCN(C3CCC3)CC1)C2", "reported property": "pIC50", "measured result": 7.28}
{"compound": "O=C(C1CC2(CCN(S(=O)(=O)c3ccccc3F)CC2)C1)N1CCCN(C2CCC2)CC1", "reported property": "pIC50", "measured result": 8.21}
{"compound": "O=C(C1CC12CCN(C1CCCCC1)CC2)N1CCN(C2CCC2)CC1 (centres unmarked)", "reported property": "pIC50", "measured result": 7.87}

For each listed entry, give its pIC50.
1. CN(CCN1CCCCC1)C(=O)[C@H]1CC[C@@]2(CC1)OC(=O)c1cc(Oc3ccccn3)ccc12
2. CC(C)N1CCN(C(=O)C2CC3(CCN(S(C)(=O)=O)CC3)C2)C[C@H]1C
3. COc1ccc(N2CC3(CCN(c4ccc(OC5CCN(C6CCC6)CC5)cc4)CC3)OCC2=O)cc1

Data returned:
9.17
6.75
9.74
